- TESTED_TARGET: T1, pepN48 (peptide of the 48 N-terminal extracellular amino acids of human CXCR2) (human, biotin labeled on its N-terminus (panning, ELISA, SPR))
- T1 construct: Synthetic; also called N-terminus of CXCR2
- T1 peptide: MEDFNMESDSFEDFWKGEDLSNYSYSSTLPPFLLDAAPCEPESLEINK
- PROTOCOL: SPR, Biacore T200; biotinylated pepN48 on SA chip;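 further: antibodies flowed in HBS-EP+ running buffer over the immobilized antigen at 0.5 to 10 nM, kinetic traces fitted to a protein-protein interaction model to derive constants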
MEASURE_NAME: koff (s⁻¹)
# value in s⁻¹; strip the unit string

Form: binder = abN48-IgG1 (antibody, V domains shown, also called full-length abN48) VH: QVQLVQSGAEVKKPGSSVKVSCKASGGTLSSYAISWVRQAPGQGPEWMGWINPNSGGTNYAQKFQGRVTMTRDTSISTAYMELSRLRPDDTAVYYCASGYCSSTSCYDYWGQGTLVTVSS VL: QAVLTQPSSLSASPGASVSLTCTLRSGINVGAYRIYWYQQKPGSPPQFLLRYKSDSDKQQGSGVPSRFSGSRDASANAGILLISGLRSEDEADYYCAIWHSSAWVFGGGTQLTVLG ; koff = 0.00035

Next:
koff recorded for this binder, abN48-7 (antibody, V domains shown, format as tested not clearly stated) VH: QVQLVQSGAEVKKPGSSVKVSCKASGGTLSSYAISWVRQAPGQGPEWMGWINPNSGGTNYAQKFQGRVTMTRDTSISTAYMELSRLRPDDTAVYYCASGYCGRARCTSFWGQGTLVTVSS VL: QAVLTQPSSLSASPGASVSLTCTLRSGINVGAYRIYWYQQKPGSPPQFLLRYKSDSDKQQGSGVPSRFSGSRDASANAGILLISGLRSEDEADYYCAIWHSSAWVFGGGTQLTVLG , is 0.00015

Taken from patent US20220332835A1.
